- TARGET SYSTEM: UniProt:P14780
- Sequence (P14780 whole entry): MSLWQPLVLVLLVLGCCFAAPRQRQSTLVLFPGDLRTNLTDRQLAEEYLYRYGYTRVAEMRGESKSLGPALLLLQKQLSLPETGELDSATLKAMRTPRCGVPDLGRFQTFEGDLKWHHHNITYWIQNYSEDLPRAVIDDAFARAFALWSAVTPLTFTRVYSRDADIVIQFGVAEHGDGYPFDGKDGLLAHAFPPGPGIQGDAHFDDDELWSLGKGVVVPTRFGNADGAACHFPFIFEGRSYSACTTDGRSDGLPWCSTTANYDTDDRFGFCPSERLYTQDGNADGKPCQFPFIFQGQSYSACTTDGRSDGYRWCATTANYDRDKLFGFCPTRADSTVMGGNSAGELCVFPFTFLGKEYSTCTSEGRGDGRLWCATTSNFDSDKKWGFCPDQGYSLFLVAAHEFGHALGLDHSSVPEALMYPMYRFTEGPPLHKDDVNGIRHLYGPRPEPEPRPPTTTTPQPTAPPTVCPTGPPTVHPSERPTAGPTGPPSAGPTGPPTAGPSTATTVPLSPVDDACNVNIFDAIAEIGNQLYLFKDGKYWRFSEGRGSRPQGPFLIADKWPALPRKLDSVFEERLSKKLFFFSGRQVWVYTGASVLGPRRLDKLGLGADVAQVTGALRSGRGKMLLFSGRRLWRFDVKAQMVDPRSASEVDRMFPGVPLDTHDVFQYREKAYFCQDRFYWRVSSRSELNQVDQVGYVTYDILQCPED
ATTRIBUTE MEASURED: Ki (µM)
Answers are plain numbers, in µM.

For record CNC(=O)C1CCCCNC(=O)CCC(C(=O)O)NC(CCc2ccccc2)C(=O)N1 (stereo unspecified) the listed Ki is 6.6

* * *

- TARGET SYSTEM: Stromelysin-3 (Homo sapiens, UniProt P24347)
- Sequence (P24347 whole entry): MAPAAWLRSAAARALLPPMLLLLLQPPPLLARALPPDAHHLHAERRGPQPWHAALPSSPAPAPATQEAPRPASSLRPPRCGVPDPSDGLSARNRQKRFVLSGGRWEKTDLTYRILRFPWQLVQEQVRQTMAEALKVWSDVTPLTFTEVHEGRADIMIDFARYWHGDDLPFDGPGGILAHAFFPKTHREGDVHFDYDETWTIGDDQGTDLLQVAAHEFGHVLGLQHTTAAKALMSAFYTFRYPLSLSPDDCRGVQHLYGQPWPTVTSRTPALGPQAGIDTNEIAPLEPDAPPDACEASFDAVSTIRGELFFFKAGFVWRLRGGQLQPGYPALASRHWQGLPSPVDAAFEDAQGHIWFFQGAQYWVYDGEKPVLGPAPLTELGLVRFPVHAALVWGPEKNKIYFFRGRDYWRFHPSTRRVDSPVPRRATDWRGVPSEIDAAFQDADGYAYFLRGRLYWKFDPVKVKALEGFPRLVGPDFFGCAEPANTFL
ATTRIBUTE MEASURED: pKi
Give bare numbers, as −log10 of the molar value.

Lookup result for NC(=O)C(Cc1c[nH]c2ccccc12)NC(=O)C(CCCc1ccccc1)CP(=O)(O)C(Cc1ccccc1)NC(=O)OCc1ccccc1 (stereo unspecified) ; measured pKi: 8.30

* * *

- TARGET SYSTEM: 72 kDa type IV collagenase (Homo sapiens, UniProt P08253)
- Sequence (P08253 whole entry): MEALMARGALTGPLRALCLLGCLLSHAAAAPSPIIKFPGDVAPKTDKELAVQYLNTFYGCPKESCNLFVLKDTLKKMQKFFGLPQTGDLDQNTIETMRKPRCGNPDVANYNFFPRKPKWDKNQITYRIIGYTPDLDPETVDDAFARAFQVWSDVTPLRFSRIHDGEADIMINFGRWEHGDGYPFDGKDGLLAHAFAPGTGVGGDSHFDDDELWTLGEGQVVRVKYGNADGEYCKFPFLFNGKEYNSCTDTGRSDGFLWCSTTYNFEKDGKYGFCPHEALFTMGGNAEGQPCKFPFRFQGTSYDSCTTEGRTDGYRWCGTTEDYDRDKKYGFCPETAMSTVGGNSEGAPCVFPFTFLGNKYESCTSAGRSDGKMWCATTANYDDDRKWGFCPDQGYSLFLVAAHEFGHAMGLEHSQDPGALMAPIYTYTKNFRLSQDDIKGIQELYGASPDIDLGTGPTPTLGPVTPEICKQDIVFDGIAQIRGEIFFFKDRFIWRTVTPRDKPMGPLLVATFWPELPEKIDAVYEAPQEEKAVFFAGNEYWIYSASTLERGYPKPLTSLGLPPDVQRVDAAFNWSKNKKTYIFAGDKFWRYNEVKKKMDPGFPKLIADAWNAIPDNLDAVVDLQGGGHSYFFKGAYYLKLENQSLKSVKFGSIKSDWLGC
ATTRIBUTE MEASURED: IC50 (µM)
Give bare numbers, in µM.

The recorded IC50 for CC(C)CC(C(=O)N[C@H]1CCCCCCCCCCNC1=O)[C@H](O)C(=O)NO (stereo partly specified) is 0.02

* * *

- TARGET SYSTEM: Matrilysin (Homo sapiens, UniProt P09237)
- Sequence (P09237 whole entry): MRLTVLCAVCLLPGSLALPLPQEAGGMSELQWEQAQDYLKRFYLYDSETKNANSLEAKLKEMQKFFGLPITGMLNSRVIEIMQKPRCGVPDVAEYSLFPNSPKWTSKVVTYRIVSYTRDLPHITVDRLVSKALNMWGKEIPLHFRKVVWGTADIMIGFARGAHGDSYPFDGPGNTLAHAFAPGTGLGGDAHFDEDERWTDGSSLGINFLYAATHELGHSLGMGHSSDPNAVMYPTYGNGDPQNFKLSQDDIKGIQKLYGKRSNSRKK
ATTRIBUTE MEASURED: IC50

Entry `O=C(Nc1ccc(S(=O)(=O)C[C@@H](Cc2c[nH]c3ccccc23)C(=O)O)cc1)c1ccc(Br)cc1` ; IC50 = > 1000 nM

* * *

- TARGET SYSTEM: Stromelysin-1 (Homo sapiens)
- Sequence (P08254 whole entry): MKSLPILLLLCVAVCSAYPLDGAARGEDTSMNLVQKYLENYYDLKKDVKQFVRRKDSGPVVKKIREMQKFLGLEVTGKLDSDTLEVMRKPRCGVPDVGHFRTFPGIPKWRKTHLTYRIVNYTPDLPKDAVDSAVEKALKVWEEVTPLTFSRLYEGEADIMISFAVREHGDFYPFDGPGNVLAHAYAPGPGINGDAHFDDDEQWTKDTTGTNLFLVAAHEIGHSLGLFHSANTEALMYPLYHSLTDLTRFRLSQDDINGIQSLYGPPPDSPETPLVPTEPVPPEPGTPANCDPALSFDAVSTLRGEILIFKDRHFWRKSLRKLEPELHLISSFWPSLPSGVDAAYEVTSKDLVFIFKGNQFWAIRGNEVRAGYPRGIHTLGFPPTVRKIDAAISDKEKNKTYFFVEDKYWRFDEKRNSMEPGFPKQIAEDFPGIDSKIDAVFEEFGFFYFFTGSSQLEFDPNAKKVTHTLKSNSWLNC
ATTRIBUTE MEASURED: IC50 (nM)
Answers are plain numbers, in nM.

Given the molecule CC(C)CC(C(=O)N[C@H]1CCCCCCCCCCNC1=O)[C@H](O)C(=O)NO (stereo partly specified) and test system Stromelysin-1 (Homo sapiens), the measured IC50 is 500

* * *

- TARGET SYSTEM: Neutrophil collagenase (Homo sapiens, UniProt P22894)
- Sequence (P22894 whole entry): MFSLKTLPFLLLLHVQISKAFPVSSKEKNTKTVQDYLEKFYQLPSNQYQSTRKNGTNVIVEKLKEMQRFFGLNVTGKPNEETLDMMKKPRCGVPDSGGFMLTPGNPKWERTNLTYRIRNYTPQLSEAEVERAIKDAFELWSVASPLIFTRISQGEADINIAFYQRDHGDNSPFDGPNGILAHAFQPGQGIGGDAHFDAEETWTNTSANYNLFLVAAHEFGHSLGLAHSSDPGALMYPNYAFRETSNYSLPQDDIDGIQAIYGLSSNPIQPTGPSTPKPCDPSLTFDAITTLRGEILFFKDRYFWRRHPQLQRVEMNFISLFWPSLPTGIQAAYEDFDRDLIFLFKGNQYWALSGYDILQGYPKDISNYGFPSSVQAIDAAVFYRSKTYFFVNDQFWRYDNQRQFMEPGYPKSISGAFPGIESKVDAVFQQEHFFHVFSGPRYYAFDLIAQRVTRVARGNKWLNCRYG
- PROTOCOL DETAILS: Binding affinity to MMP8
ATTRIBUTE MEASURED: Ki
# do not omit the unit; it follows the number

# compound CNC(=O)C1CCCCNC(=O)CCC(C(=O)O)NC(CCc2ccccc2)C(=O)N1 (stereo unspecified) ; its Ki = 17 nM

* * *

- TARGET SYSTEM: UniProt:P03956
- Sequence (P03956 whole entry): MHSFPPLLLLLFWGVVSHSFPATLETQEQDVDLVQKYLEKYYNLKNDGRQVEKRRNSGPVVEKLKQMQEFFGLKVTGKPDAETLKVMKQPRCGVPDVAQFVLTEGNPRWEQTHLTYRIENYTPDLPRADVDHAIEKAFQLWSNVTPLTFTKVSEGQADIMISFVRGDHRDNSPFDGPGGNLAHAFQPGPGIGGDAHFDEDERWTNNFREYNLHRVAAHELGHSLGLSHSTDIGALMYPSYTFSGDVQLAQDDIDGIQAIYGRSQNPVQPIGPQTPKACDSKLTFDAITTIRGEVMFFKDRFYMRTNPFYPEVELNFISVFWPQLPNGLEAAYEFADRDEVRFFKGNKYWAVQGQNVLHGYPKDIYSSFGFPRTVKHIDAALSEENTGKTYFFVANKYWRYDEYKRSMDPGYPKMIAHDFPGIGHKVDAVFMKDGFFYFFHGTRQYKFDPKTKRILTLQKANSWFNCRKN
ATTRIBUTE MEASURED: IC50

MOLECULE	ATTRIBUTE MEASURED	MEASURED RESULT
O=C(O)C1Cc2ccccc2CN1S(=O)(=O)CCc1ccc(-c2ccc(Cl)cc2)cc1 (stereo not drawn)	IC50	> 10000 nM

Record IC50 per entry; entries follow.
1. CC(C)CC(C(=O)N[C@H]1CCCCCCCCCCNC1=O)[C@H](O)C(=O)NO (stereo partly drawn)
2. O=C(Nc1ccc(S(=O)(=O)C[C@@H](Cc2c[nH]c3ccccc23)C(=O)O)cc1)c1ccc(Br)cc1

Response:
1. 30 nM
2. > 1000 nM
